Tested on: Nucleic Acid
measurement-description: Delta Tm (thermal denaturation) in sonicated calf thymus DNA
Type: nucleic-acid assay
Set-up: unit not given here
experimental-setup: Bos taurus
property-label: ΔTm

Enquiry: Return reported ΔTm; argument: `N=C(N)c1ccc(OC/C=C\COc2ccc(C(=N)N)cc2)cc1`
Return: 11

Enquiry: Return reported ΔTm; argument: `C(=C\COc1ccc(C2=NCCN2)cc1)/COc1ccc(C2=NCCN2)cc1`
Return: 7.9

Enquiry: Return reported ΔTm; argument: `N=C(N)c1ccc(OC/C=C/COc2ccc(C(=N)N)cc2)cc1`
Return: 7.7

Enquiry: Return reported ΔTm; argument: `N=C(N)c1ccc(OCCCCCOc2ccc(C(=N)N)cc2)cc1`
Return: 10

Enquiry: Return reported ΔTm; argument: `N=C(N)c1ccc(OCCCCOc2ccc(C(=N)N)cc2)cc1`
Return: 8.3

Enquiry: Return reported ΔTm; argument: `C(=C/COc1ccc(C2=NCCN2)cc1)/COc1ccc(C2=NCCN2)cc1`
Return: 9.3

###

System: Pneumocystis carinii
measurement-description: Compound was tested for anti-P. carinii activity in vitro.
Type: functional
property-label: Activity (µM)
Give the value, in units of µM, as a plain number.

Example compounds with recorded Activity:
Enquiry: Return reported Activity; argument: `N=C(N)c1ccc(OCCCCOc2ccc(C(=N)N)cc2)cc1`
Return: 39

Enquiry: Return reported Activity; argument: `N=C(N)c1ccc(OC[C@@H](O)[C@@H](O)COc2ccc(C(=N)N)cc2)cc1`
Return: 78

Enquiry: Return reported Activity; argument: `N=C(N)c1ccc(OCCCCCOc2ccc(C(=N)N)cc2)cc1`
Return: 27

Enquiry: Return reported Activity; argument: `C(=C\COc1ccc(C2=NCCN2)cc1)/COc1ccc(C2=NCCN2)cc1`
Return: 42

Enquiry: Return reported Activity; argument: `N=C(N)c1ccc(OC/C=C/COc2ccc(C(=N)N)cc2)cc1`
Return: 19

New cases:
Enquiry: Return reported Activity; argument: `N=C(N)c1ccc(OC/C=C\COc2ccc(C(=N)N)cc2)cc1`
Return: 9

Enquiry: Return reported Activity; argument: `C(=C/COc1ccc(C2=NCCN2)cc1)/COc1ccc(C2=NCCN2)cc1`
Return: 25

Enquiry: Return reported Activity; argument: `COc1cc(Cc2cnc(N)nc2N)cc(OC)c1OC.Cc1cc(NS(=O)(=O)c2ccc(N)cc2)no1`
Return: 17

###

measurement-description: Delta Tm (thermal denaturation) in sonicated poly(dA).poly(dT) homopolymer
property-label: ΔTm

Enquiry: Return reported ΔTm; argument: N=C(N)c1ccc(OCCCCCOc2ccc(C(=N)N)cc2)cc1 [PENTAMIDINE]
Return: 22.9

(1) C(=C\COc1ccc(C2=NCCN2)cc1)/COc1ccc(C2=NCCN2)cc1
(2) N=C(N)c1ccc(OC/C=C\COc2ccc(C(=N)N)cc2)cc1
Enquiry: Looking at 1 and 2 , which one comes out lower in ΔTm terms? Lab note: record the label of whichever item you select.
Return: 1
(1: 20.8, 2: 31.5)

###

measurement-description: Delta Tm (thermal denaturation) in sonicated poly(dA).poly(dT) homopolymer
property-label: ΔTm

Enquiry: Return reported ΔTm; argument: `N=C(N)c1ccc(OC/C=C/COc2ccc(C(=N)N)cc2)cc1`
Return: 23.3

Enquiry: Return reported ΔTm; argument: `N=C(N)c1ccc(OCCCCOc2ccc(C(=N)N)cc2)cc1`
Return: 20.4

Enquiry: Return reported ΔTm; argument: `C(=C/COc1ccc(C2=NCCN2)cc1)/COc1ccc(C2=NCCN2)cc1`
Return: 28.9
